Just for reference, patent US9586947B2 is where these values come from.

experiment: Pharmacokinetics assay in rats, intragastric administration; format: in vivo; details: Sprague-Dawley, rat, in vivo, po, male SD rats, 5 mg/kg, read-out: Clearance CLz/F
Measured Attribute: CL/F (L/h/kg)
Give the quantity in L/h/kg, number only.

See these solved cases before continuing.
| Compound | Units Of Measure | CL/F |
| --- | --- | --- |
| CC1(C)C(=O)N(c2ccc(C#N)c(C(F)(F)F)c2)C(=S)N1c1ccc(O[C@H]2COC[C@@H]2O)cc1 [Example 16] | L/h/kg | 0.223 |
| CC1(C)C(=O)N(c2ccc(C#N)c(C(F)(F)F)c2)C(=S)N1c1ccc(O[C@@H]2COC[C@H]2O)cc1 [Example 15] | L/h/kg | 0.239 |
| CC1(C)C(=O)N(c2ccc(C#N)c(C(F)(F)F)c2)C(=S)N1c1ccc(OCC2(N)CC2)nc1 [Example 11] | L/h/kg | 0.441 |

Read the next record carefully.
Input: Provide one value: measured CL/F of CC1(C)C(=O)N(c2ccc(C#N)c(C(F)(F)F)c2)C(=S)N1c1ccc(OCCO)cc1 [Example 17]
Output: 0.413
